For each entry below, report its TEM 2cat value.
# Assay type: physicochemical
# Design: key: 1 = fibrils present; 0 non-fibrillar structures
# CONDITIONS: category: fibrils present or non-fibrillar
In your answer, state the number alone without any accompanying words.

Ask: Field request: TEM 2cat | item: "KIKIKIQINMWQ"
Result: 1

Ask: Try "KFKFKFQF" next.
Result: 1

Ask: // query: "KFKFQFNMWQ"
Result: 1

Ask: Also "CKIKQIINM" ?
Result: 1

Ask: Field entry: "MKIKIQINMWQ"
Result: 1

Ask: Same thing, different sequence: "RGDCKFKFQF"
Result: 1

Ask: "QCKIKIQI" ?
Result: 1

Ask: Query "KIKIQINMWWQ" next
Result: 0

Ask: Moving on to "NMWQKIKIQI"
Result: 1

Ask: And what about the sequence "RGEKIKIQINM" ?
Result: 1

Ask: What do you have for "KFKFQFFF" ?
Result: 1

Reference for the values: paper PMC10447463
